# Tested On: Homeobox protein Hox-A13 (Mus musculus)
# Assay: inhibitors of HoxA13-DNA binding, primary screen, biochemical, fluorescence polarization, labeled oligonucleotide (AID 1185)
# Particulars: 15 min, higher = more signal, called active from +8 up or from −8 down
Parameter z-score: see the listing below.

Compound: CC(C)=NO[C@H](C)c1cn([C@H](CO)Cc2ccccc2)nn1
z-score: 0.584

Compound: CC(C)=CCCC(C)=CCON=C1C[C@@H](O)[C@@H](O)[C@@H]2[C@@H]3C(=O)N(Cc4ccccc4)C(=O)[C@@H]3CC[C@@H]12
z-score: -0.241

Compound: CCCNC(=O)OC[C@H]1O[C@H](c2ccccc2)C=C[C@@H]1Oc1ccc(OC)cc1
z-score: -1.63

Compound: CC(=O)OC[C@H]1O[C@H](CC=NO[C@H](C)c2cn([C@H](CO)Cc3ccccc3)nn2)C=C[C@@H]1OC(C)=O
z-score: -1.83

Compound: CO[C@@H]1COC(=O)CC=C[C@H](C)[C@H](OC)COC(=O)[C@H](C)NC(=O)CC=C[C@H]1C
z-score: 0.189

Compound: C#CCCCON=C1C[C@@H](O)[C@@H](O)[C@@H]2[C@@H]3C(=O)N(c4cccc(Oc5ccccc5)c4)C(=O)[C@@H]3CC[C@H]12
z-score: 0.303

Compound: C[C@H]1Cc2c(COc3ccccc3)nc3c(c2CO1)CN(CCOc1ccccc1)CC3
z-score: -5.49

Compound: CCO[C@H](c1cc(OC)cc([N+](=O)[O-])c1OC)[C@H](C)C=CCC(=O)OC
z-score: -0.64

Compound: CCOC(=O)C1=NO[C@@]2(C=C(Br)C3(OCCCO3)[C@H]3O[C@H]32)C1
z-score: 0.14

Compound: CC(=O)Nc1ccc([C@@H]2N[C@H](C(=O)O)CC[C@H]2C)cc1
z-score: -0.107

Compound: CCOC(=O)[C@H](CC(C)C)NC(=O)CCC1CC(OC(=O)NCc2ccc3c(c2)OCO3)CC2(CCCC(COC(=O)NCC3CCCCC3)O2)O1 (stereo partly specified)
z-score: -6.18

Compound: CCOC(=O)[C@H](CC(C)C)NC(=O)CCC1CC(OC(=O)NCc2cccc3ccccc23)CC2(CCCC(COC(=O)NCCCN3CCCC3=O)O2)O1 (stereo partly specified)
z-score: -4.61

Compound: COC(=O)[C@H](C)NC(=O)CCC1CC(OC(=O)NCc2cccc3ccccc23)CC2(CCCC(COC(=O)NCC(c3ccccc3)c3ccccc3)O2)O1 (stereo partly specified)
z-score: -4.01

Compound: C[C@@H]1CC[C@H]2C(=O)O[C@@H](Cc3ccccc3)CN2[C@H]1c1ccc(Br)cc1
z-score: -1.7

Compound: Cn1c(=O)n2n(c1=O)[C@H]1[C@H](O)[C@@H]3O[C@@H]3C(=O)[C@H]1CC2
z-score: 0.336

Compound: COc1ccc(COC(=O)NN=C2C[C@@H](O)[C@@H](O)[C@@H]3[C@@H]4C(=O)N(c5ccc(F)cc5F)C(=O)[C@@H]4CC[C@H]23)cc1
z-score: -6.79

Compound: O=C1CCCC(C2=CCCCC2=O)C1 (stereo unspecified)
z-score: -1.63

Compound: O=C1C=C[C@@H](O)[C@@H]2[C@@H]3C(=O)N(c4ccc(F)cc4F)C(=O)[C@@H]3CC[C@@H]12
z-score: 0.159

Compound: COc1ccc(O[C@H]2C=C[C@@H](c3ccccc3)O[C@@H]2CON=C(C)CCN2CCc3nc(-c4ccccc4)c(-c4ccccc4)cc3C2)cc1
z-score: -1.81

Compound: CO[C@H]1COC(=O)[C@H](C)NC(=O)[C@@H](C)COC(=O)[C@H]2CCCN2C(=O)CC=C[C@H]1C
z-score: 0.24

Compound: CC(C)CON=C1C[C@@H](O)[C@@H](O)[C@@H]2[C@@H]3C(=O)N(C[C@@H]4CCCO4)C(=O)[C@@H]3CC[C@@H]12
z-score: -0.771

Compound: COc1cccc([C@H]2Oc3ccc(OC)cc3C(=NO[C@H](C)c3cn([C@H](CO)Cc4ccccc4)nn3)[C@@H]2O)c1
z-score: -6.29

Compound: CCOC(=O)CCN1C(=O)[C@H]2[C@H]3[C@H](O)[C@H](O)CC(=NOCc4ccccc4)[C@H]3CC[C@H]2C1=O
z-score: 0.313

Compound: CCC(=O)[C@@]1(O)C(=O)N2C(=C3C(=O)OCC[C@@H]31)N(Cc1ccccc1)C(C)=C(C(=O)OC)[C@H]2c1ccccc1
z-score: -0.219

Compound: C[C@@H](c1ccccc1)N1C(=O)[C@H]2[C@H]3[C@H](O)[C@H](O)CC(=NO[C@@H]4O[C@H](CO)[C@@H](O)[C@H](O)[C@H]4O)[C@@H]3CC[C@H]2C1=O
z-score: 0.174

Compound: C[n+]1ccc(-c2ccc(CO)cc2)cc1
z-score: -2.76

Compound: COC(=O)[C@@H]1CC[C@H](C)[C@@H](c2ccc(C)cc2)N1C(=O)c1ccc(C=NO[C@H](C)c2cn([C@@H]3COC[C@H]3O)nn2)cc1
z-score: -6.19

Compound: C#CCCCON=C1C[C@@H](O)[C@@H](O)[C@@H]2[C@@H]3C(=O)N(c4ccc(F)cc4F)C(=O)[C@@H]3CC[C@H]12
z-score: -0.42

Compound: O=C(NN=C1C[C@@H](O)[C@@H](O)[C@@H]2[C@@H]3C(=O)N(Cc4ccccc4)C(=O)[C@@H]3CC[C@@H]12)OCc1ccccc1
z-score: 0.236

Compound: CCOC(=O)NN=C1C[C@@H](O)[C@@H](O)[C@@H]2[C@@H]3C(=O)N(Cc4ccc5c(c4)OCO5)C(=O)[C@@H]3CC[C@H]12
z-score: -0.227

Compound: CC(=O)OC[C@H]1O[C@@H](ON=C(C)CCN2CCCc3nc(C)c(C)cc32)[C@H](OC(C)=O)[C@@H](OC(C)=O)[C@@H]1OC(C)=O
z-score: -5.84

Reference source: PubChem BioAssay
